- experimental.target: 14-3-3σ/ERα (Homo sapiens, UniProt P03372+P31947)
- Construct: The 14-3-3 σ isoform (full-length for mass spectrometry and fluorescence anisotropy assays, ΔC for crystallography); made in house; host or cells: E. coli Rosetta 2(DE3)pLysS, pPROEX HTb vector
- Sequence (P31947 whole entry, other chains not shown, canonical isoform): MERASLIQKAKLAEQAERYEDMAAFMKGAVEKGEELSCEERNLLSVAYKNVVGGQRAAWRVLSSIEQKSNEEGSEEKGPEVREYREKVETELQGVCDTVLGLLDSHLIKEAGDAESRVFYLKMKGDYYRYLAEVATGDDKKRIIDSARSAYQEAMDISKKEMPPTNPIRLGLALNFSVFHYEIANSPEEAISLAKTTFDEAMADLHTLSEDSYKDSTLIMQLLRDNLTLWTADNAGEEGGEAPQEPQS
- assay.name: Mass spectrometry dose response, compound binding to 14-3-3σ in the presence of ERα phosphopeptide
- experimental.setup: 100 nM compound, 100 nM 14-3-3σ, ERα-peptide 2 µM, 24h
- Text: Two orthogonal assays were developed for screening. For the primary assay, mass spectrometry (MS) was used to monitor the formation of the covalent bond between the compound and the native cysteine (Cys38 on 14-3-3σ) (Figure 1D). […] As a secondary assay, fluorescence anisotropy (FA) was used. […]
measured.quantity: Percentage (%) bound of compound to 14-3-3σ, ERα 24h

These recorded examples may help you get a feel for the data.
O=C(CCl)NCC1CC2(CCN(C(=O)C3(Nc4ccc(Cl)cc4)CCOCC3)CC2)C1: 41.4
O=C(CCl)N1CC2(CCN(C(=O)C3(Nc4ccc(Cl)cc4)CCOCC3)CC2)C1: 76.6
O=C(CCl)NCC1CCN(C(=O)C2(Oc3ccccc3)CCCC2)CC1: 21.0
Cl.O=C(CCl)NCC1CCN(C(=O)C2(Nc3ccccc3)CCNCC2)CC1: 47.0
Cl.NC1CCC(Nc2ccccc2)(C(=O)N2CCC(CNC(=O)CCl)CC2)CC1 (centres unmarked): 89.9

[a] O=C(CCl)NCC1CCN(C(=O)C2(Nc3ccccc3)CCC2)CC1
[b] O=C(CCl)N1CCC2(CC1)CC(NC(=O)C1(Nc3ccc(Cl)cc3)CCOCC1)C2
[c] C=CS(=O)(=O)NCC1CCN(C(=O)C(C)(C)Oc2ccc(Cl)cc2)CC1
[d] Cl.NC1CCC(Oc2ccccc2)(C(=O)N2CCC(CNC(=O)CCl)CC2)CC1 (centres unmarked)
[e] CC(C)(Oc1ccc(Cl)cc1)C(=O)N1CCC(CCCNC(=O)CCl)CC1
Hey, can you sort those compounds up there by Percentage (%) bound of compound to 14-3-3σ, ERα 24h, smallest first? Please list each label once, in the requested order.
a, d, e, c, b

[P] O=C(CCl)NCC1CCN(C(=O)C2(Nc3ccccc3)CCCCC2)CC1
[Q] CC1CC(Nc2ccc(Cl)cc2)(C(=O)NCC2CC3(CCN(C(=O)CCl)CC3)C2)CC(C)O1 (centres unmarked)
[R] O=C(CCl)NCC1CCN(C(=O)C2(Oc3ccc(Cl)cc3)CCOCC2)CC1
[S] CC(C)(Oc1ccc(Cl)cc1)C(=O)N1CCC(NC(=O)CCl)CC1
Order the 4 compounds from highest to lowest Percentage (%) bound of compound to 14-3-3σ, ERα 24h. A ranking is expressed here by listing the labels in the requested order.
Q, R, S, P
(Q: 96.1%, R: 15.1%, S: 1.8%, P: 0%)
